# experimental system: T1, human TNFR1 (human, UniProt P19438)
# T1 chain: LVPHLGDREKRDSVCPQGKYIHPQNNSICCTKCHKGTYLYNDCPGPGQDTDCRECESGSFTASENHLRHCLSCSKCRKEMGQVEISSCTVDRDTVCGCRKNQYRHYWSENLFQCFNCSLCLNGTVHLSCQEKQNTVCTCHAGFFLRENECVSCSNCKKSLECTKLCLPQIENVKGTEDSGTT
# assay notes: ELISA
property label: EC50 (nM)

Recorded results for 2 binders are shown here.
{"binder": "DOM1H-131-206 Q13A (antibody, V domains shown) VH: EVQLLESGGGLVAPGGSLRLSCAASGFTFAHETMVWVRQAPGKGLEWVSHIPPDGQDPFYADSVKGRFTISRDNSKNTLYLQMNSLRAEDTAVYHCALLPKRGPWFDYWGQGTLVTVSS", "property label": "EC50", "meas value": 1.75}
{"binder": "DOM1H-131-206 C-terminal ASTKGP (antibody, V domains shown) VH: EVQLLESGGGLVQPGGSLRLSCAASGFTFAHETMVWVRQAPGKGLEWVSHIPPDGQDPFYADSVKGRFTISRDNSKNTLYLQMNSLRAEDTAVYHCALLPKRGPWFDYWGQGTLVTVSS", "property label": "EC50", "meas value": 11.9}

[a] DOM1H-131-206 G44E (antibody, V domains shown) VH: EVQLLESGGGLVQPGGSLRLSCAASGFTFAHETMVWVRQAPGKELEWVSHIPPDGQDPFYADSVKGRFTISRDNSKNTLYLQMNSLRAEDTAVYHCALLPKRGPWFDYWGQGTLVTVSS
[b] DOM1H-131-206 P41A (antibody, V domains shown) VH: EVQLLESGGGLVQPGGSLRLSCAASGFTFAHETMVWVRQAAGKGLEWVSHIPPDGQDPFYADSVKGRFTISRDNSKNTLYLQMNSLRAEDTAVYHCALLPKRGPWFDYWGQGTLVTVSS
Could you point out whether the larger EC50 belongs to a or to b ? Respond using the label that marks the chosen record.
a
